B1: FEM1B (parent)
chain: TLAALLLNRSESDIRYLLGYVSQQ

Variants of: B1
Protocol Details: protein stability index of a GFP-peptide fusion (GPS, HEK-293T) (PSI 1-6); higher = more stable;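 note: lentivirally expressed fusions sorted by FACS into six bins by GFP to DsRed ratio, PSI derived from sequencing read proportions per bin multiplied by bin number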
Applied Conditions: c terminus: a fixed tail appended
Listed here: items and their measured protein stability index.

These recorded examples may help you get a feel for the data.
{"columns": ["Mutation Id", "protein stability index"],
 "data": [
  ["L18R", 3.15],
  ["E11K", 2.83],
  ["L6A", 2.12],
  ["Q24W", 2.52],
  ["V21D", 2.86]
]}

Exam item: What does the data say about its protein stability index? Entry: `L7P`
Marked response: 1.3

Exam item: protein stability index for `Q23T` ?
Marked response: 3.07

Exam item: Which protein stability index reading was recorded for the variant `I14C` ?
Marked response: 2.37

Exam item: Please look up its protein stability index: `L7N`
Marked response: 1.95

Exam item: Fill in the blank: the reported protein stability index of `E11V` is ____.
Marked response: 2.96

Exam item: Could you tell me which protein stability index is on file for `G19T` ?
Marked response: 2.4

Exam item: # input variant: `L18K` ; wanted: its protein stability index
Marked response: 3.43

Exam item: Look up protein stability index: `Y16M`
Marked response: 2.45
